# Tested on: ROB ((S,S)-butanediol dehydrogenase)
# Format: biochemical, Ochrobactrum sp. KNKc71-3
# Condition: reagent 1.0 mM; (2S,3S)-2,3-butanediol 0.1 M, NAD+ 2 mM, pH 8.0, 30° C.; reagent-free activity taken as 100
Here the recorded Relative activity (%) is given for each entry.
The figure you give is taken to be in %; do not add the unit.

I have this compound here, O=S(=O)(F)Cc1ccccc1 [Phenylmethylsulfonyl fluoride] , and I need its recorded Relative activity (%).
75

Field entry: [Ca+2].[Cl-].[Cl-]
86

New cases:
I have this compound here, [Cl][Hg][Cl] , and I need its recorded Relative activity (%).
0

Field entry: O=S(=O)([O-])[O-].[Zn+2]
88

Field entry: O=C(O)c1cc[c]([Hg][Cl])cc1 [p-chloromercuribenzoate]
84

Field entry: O=[N+]([O-])[O-].[Ag+]
30

* * *

# System: ROB ((S,S)-butanediol dehydrogenase)
# Type: biochemical, Ochrobactrum sp. KNKc71-3
# Condition: pH 8
Metric Name: Relative activity (%)
The figure you give is taken to be in %; do not add the unit.

Reference set, count: 3
I have this compound here, O=C(O)CN(CCN(CC(=O)O)CC(=O)O)CC(=O)O , and I need its recorded Relative activity (%).
95

Field entry: CCN1C(=O)C=CC1=O [N-ethylmaleimide]
93

Field entry: [Cl-].[Cl-].[Co+2]
66

We now examine a further compound.
I have this compound here, CC(=O)[O-].[Na+] [Sodium acetate] , and I need its recorded Relative activity (%).
96

* * *

# System: ROB ((S,S)-butanediol dehydrogenase)
# Format: biochemical, Ochrobactrum sp. KNKc71-3
# Condition: reagent 1.0 mM; (2S,3S)-2,3-butanediol 0.1 M, NAD+ 2 mM, pH 8.0, 30° C.; reagent-free activity taken as 100
Metric Name: Relative activity (%)

Reference set, count: 3
I have this molecule here, [Ba+2].[Cl-].[Cl-] , and I need its recorded Relative activity (%).
56%

Field entry: O=S(=O)([O-])[O-].[Mg+2]
91%

Field entry: [Cl][Mn][Cl]
87%

We now examine a further molecule.
I have this molecule here, O=S(=O)([O-])[O-].[Cu+2] , and I need its recorded Relative activity (%).
81%

* * *

# System: ROB ((S,S)-butanediol dehydrogenase)
# Experimental Details: Substrate specificity of ROB: oxidation activity
# Format: biochemical, Ochrobactrum sp. KNKc71-3
# Condition: each compound 10 mM, NAD+ 2 mM, phosphate buffer pH 8.0, 30° C., 1 minute, activity against 2,3-butanediol taken as 100
# label = true if Relative activity (%) < 8% else false

Study these solved cases before continuing.
Given CCO , is recorded Relative activity (%) strictly lower than 8%?
true

Field entry: CC(C)O
true

New cases:
Given CCOC(=O)C(C)O (stereo not drawn) [Ethyl lactate] , is recorded Relative activity (%) strictly lower than 8%?
true

Field entry: OCC(O)CCl (stereo not drawn)
true

Field entry: CC(O)CCO (stereo not drawn)
true

Field entry: CCC(C)O (stereo not drawn)
false

Field entry: CC(O)c1ccccc1 (stereo not drawn)
true

Field entry: CC(O)Cc1ccccc1 (stereo not drawn)
false

Field entry: CC(O)CCCO (stereo not drawn)
true

Field entry: CO
true

Field entry: CC(=O)C(C)O (stereo not drawn)
true

Field entry: CCCCCCC(C)O (stereo not drawn)
false

Field entry: CCCC(O)CO (stereo not drawn)
true

Field entry: CCCC(C)O (stereo not drawn)
false
